Sourced from the RNAGym collection of RNA variant scans (doi:10.7554/elife.90254)

B1: LINE1-mini (parent)
chain: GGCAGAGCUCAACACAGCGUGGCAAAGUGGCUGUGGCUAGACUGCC

# Variants of: B1
# experiment summary: self-cleavage, relative activity (ratio to wild type); higher = more cleavage; in vitro, sequencing; the parent is a self-cleaving ribozyme
Returns the class for an entry based on its self-cleavage. Class ranges: low (below 0.06), intermediate (0.06 to below 0.2), high (0.2 or more)

# bin label for C3G G7A
high

# bin label for A12G U28C
low

# bin label for A16G G17U
high

# bin label for G1C G36U
low

# bin label for C23U C46U
high

# bin label for G1C G5C
low

# bin label for G21C G22C
high

# bin label for G5C G19C
intermediate

# bin label for C15G A25U
low

# bin label for G29C G44C
high

# bin label for A25U G27A
high

# bin label for C10U A39G
intermediate

# bin label for G27A G29A
high

# bin label for A24C G35U
low

# bin label for U9A C10G
low

# bin label for A11C A24U
intermediate

# bin label for G5A U9A
high

# bin label for A4C A6C
intermediate

# bin label for A16C U20A
low

# bin label for A4C U43G
intermediate

# bin label for U20C G44A
intermediate

# bin label for G21U U32C
high

# bin label for G17C U32G
intermediate

# bin label for G21U G29A
high

# bin label for G1A U43A
low

# bin label for G35A U43G
low

# bin label for C23U G33A
intermediate

# bin label for U9G U32G
low

# bin label for U34C U43G
high

# bin label for A4C C45A
intermediate

# bin label for C3U C13U
high

# bin label for G21U A41U
high

# bin label for U9C G19A
low

# bin label for G19C A41G
low

# bin label for G1U A25G
high

# bin label for G17A G40U
intermediate

# bin label for C13U C23U
high

# bin label for C3G G29A
high

# bin label for U20A U34A
intermediate

# bin label for G1A G33U
intermediate

# bin label for U32A U38A
intermediate

# bin label for U9G C13G
intermediate

# bin label for A6G C13G
intermediate

# bin label for G33U G36C
low

# bin label for C23G A24C
high

# bin label for A11G G36U
low

# bin label for G1A G19C
high

# bin label for U9G U32C
low

# bin label for G29U A39U
high

# bin label for G17C U28G
high

# bin label for C8A C23G
high

# bin label for G1C U9A
low

# bin label for G2A G29C
high

# bin label for C3U U32G
intermediate

# bin label for A16G C31A
low

# bin label for C18U U28G
high
